Biological target: Human Soluble His9-LOX-1 from R&D Systems (human, UniProt P78380 61-273)
Experiment: solution equilibrium titration (SET), MSD read-out
Label condition met when Kd is strictly below 2 pM; otherwise label condition not met.

A selection of reference data follows.
Q: Problem: For the binder FF3 (antibody, human IgG1, kappa, L234A L235A, V domains shown, Humaneered variant of E2E10, tested as full human IgG; Biotinylated for the neutrophil assay; also called LLG785; LLG785 (FF3)) VH: QVQLVQSGAEVKKPGASVKVSCKASGYTFTDYEVHWVRQAPGQGLEWMGAIHPGSGGAAYVQKFQGRVTMTRDTSISTAYMELSRLRSDDTAVYYCARWLPMDYWGQGTLVTVSS VL: DIQMTQSPSSVSASVGDRVTITCRASQGINNWLVWYQQKPGKAPKLLIYAASSLQSGVPSRFSGSGSGADYTLTISSLQPEDFATYYCQQYLITPYTFGQGTKLEIKR , is Kd under 2 pM?
A: condition not met

Q: Please check: Kd for FF4 (antibody, human IgG1, kappa, L234A L235A, V domains shown, Humaneered variant of E2E10, tested as full human IgG; the text and claims pair heavy chain 56 with light chain 66; Biotinylated for the neutrophil assay; also called LLG786; LLG786 (FF4)) VH: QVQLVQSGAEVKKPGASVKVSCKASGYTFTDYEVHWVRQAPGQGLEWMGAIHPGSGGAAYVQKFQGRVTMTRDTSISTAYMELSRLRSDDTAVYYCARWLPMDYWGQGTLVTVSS VL: DIQMTQSPSSVSASVGDRVTITCRASQGITNWLAWYQQKPGKAPKLLIYAASILESGVPSRFSGSGSGTDYTLTISSLQPEDIATYYCQQYLITPYTFGQGTKLEIKR , strictly under 2 pM or not?
A: condition met

Q: Hello, is Kd of the following binder strictly smaller than 2 pM? FF5 (antibody, human IgG1, kappa, L234A L235A, V domains shown, Humaneered variant of E2E10, tested as full human IgG; Biotinylated for the neutrophil assay; also called LLG787; LLG787 (FF5)) VH: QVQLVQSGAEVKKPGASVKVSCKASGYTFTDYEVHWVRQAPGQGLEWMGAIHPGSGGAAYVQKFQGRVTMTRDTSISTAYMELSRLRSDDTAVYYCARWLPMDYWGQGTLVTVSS VL: DIQMTQSPSSVSASVGDRVTITCRASQGINNWLVWYQQKPGKAPKLLLYAASRLESGVPSRFSGSGSGTDYTLTISSLQPEDIATYYCQQYLITPYTFGQGTKLEIKR
A: condition met

Please find the next binder below.
Q: I wonder whether FF1 (antibody, human IgG1, kappa, L234A L235A, V domains shown, Humaneered variant of E2E10, tested as full human IgG (captured or detected with anti-human IgG); Biotinylated for the neutrophil assay; also called LLG783; LLG783 (FF1)) VH: QVQLVQSGAEVKKPGASVKVSCKASGYTFTDYEVHWVRQAPGQGLEWMGAIHPGSGGAAYVQKFQGRVTMTRDTSTSTAYMELSSLRSDDTAVYYCARWLPMDYWGQGTLVTVSS VL: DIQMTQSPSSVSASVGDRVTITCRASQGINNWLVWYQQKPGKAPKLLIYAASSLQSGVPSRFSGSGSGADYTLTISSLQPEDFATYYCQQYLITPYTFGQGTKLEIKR has Kd below 2 pM. Can you tell?
A: condition not met
